- System: 786-0
- assay_info: Antiproliferative activity against human 786-0 cells assessed as inhibition of cell growth at 10 uM by SRB assay relative to control
- Format: functional
readout_type: inhibition at 10 µM

[in] Please look at this compound and report its inhibition at 10 µM: `CNC(=O)c1cc(Oc2ccc(NC(=O)Nc3ccc(Cl)c(C(F)(F)F)c3)cc2)ccn1`
[out] 84.5%

[in] Please look at this compound and report its inhibition at 10 µM: `COc1cc2oc(-c3cccc(C(=O)Nc4ccc(Cl)cc4)c3)cc(=O)c2c(OC)c1OC`
[out] 88%

[in] Please look at this compound and report its inhibition at 10 µM: `COc1cc2oc(-c3cccc(NC(=O)c4ccc(Br)cc4)c3)cc(=O)c2c(OC)c1OC`
[out] 84%

[in] Please look at this compound and report its inhibition at 10 µM: `COc1cc2oc(-c3cccc(C(=O)Nc4ccc(Cl)cc4)c3)cc(=O)c2c(O)c1OC`
[out] 53%

[in] Please look at this compound and report its inhibition at 10 µM: `COc1cc2oc(-c3cccc(C(=O)Nc4ccc(C)cc4)c3)cc(=O)c2c(OC)c1OC`
[out] 55.7%

* * *

- System: NCI-H522
- assay_info: Antiproliferative activity against human NCI-H522 cells assessed as cell growth inhibition at 10 uM by SRB assay
- Format: functional, cell-based
Calls of active or inactive are those of the source. The calls are words filed in the database; no cut-off is given here.
readout_type: inhibition

>>> measured_value("COc1cc2oc(-c3cccc(NC(=O)c4cccc(Br)c4)c3)cc(=O)c2c(OC)c1OC")
"Active"
>>> measured_value("COc1cc2oc(-c3cccc(NC(=O)c4ccc(C)cc4)c3)cc(=O)c2c(OC)c1OC")
"Active"
>>> measured_value("COc1cc2oc(-c3cccc(NC(=O)c4cccc(C#N)c4)c3)cc(=O)c2c(OC)c1OC")
"Active"
>>> measured_value("COc1cc2oc(-c3ccc(NC(=O)c4ccc(Br)cc4)cc3)cc(=O)c2c(OC)c1OC")
"Active"
>>> measured_value("COc1cc2oc(-c3ccc(NC(=O)c4ccc(C(F)(F)F)cc4)cc3)cc(=O)c2c(OC)c1OC")
"Active"
>>> measured_value("COc1cc2oc(-c3ccc(NC(=O)c4ccc(C)cc4)cc3)cc(=O)c2c(OC)c1OC")
"Active"
>>> measured_value("COC(=O)c1ccc(C(=O)Nc2ccc(-c3cc(=O)c4c(OC)c(OC)c(OC)cc4o3)cc2)cc1")
"Active"
>>> measured_value("COc1cc2oc(-c3cccc(NC(=O)c4ccc(Cl)cc4)c3)cc(=O)c2c(OC)c1OC")
"Active"
>>> measured_value("COc1cc2oc(-c3ccc(NC(=O)c4cccc(Br)c4)cc3)cc(=O)c2c(OC)c1OC")
"Active"
>>> measured_value("COc1cc2oc(-c3cccc(C(=O)Nc4ccc(C)cc4)c3)cc(=O)c2c(OC)c1OC")
"Active"

[in] Report inhibition under test system NCI-H522 for `COc1cc2oc(-c3cccc(C(=O)Nc4ccc(C#N)cc4)c3)cc(=O)c2c(OC)c1OC` .
[out] Active

[in] Report inhibition under test system NCI-H522 for `COc1cc2oc(-c3cccc(NC(=O)c4ccccc4Br)c3)cc(=O)c2c(OC)c1OC` .
[out] Active

[in] Report inhibition under test system NCI-H522 for `COc1cc2oc(-c3ccc(NC(=O)c4ccc(C#N)cc4)cc3)cc(=O)c2c(OC)c1OC` .
[out] Active

[in] Report inhibition under test system NCI-H522 for `COc1cc2oc(-c3ccc(NC(=O)c4ccc(F)cc4)cc3)cc(=O)c2c(OC)c1OC` .
[out] Active
